Tested on: Escherichia coli
Assay: Antimicrobial activity against TolC-deficient Escherichia coli ARC524 W3110 harboring mutant by CLSI dilution method
Assay type: functional
Exercise: for every item that follows, state its recorded MIC.

C[C@@H]1CN(Cc2ccc(C#Cc3ccc(OCC4(C(=O)NO)CCOCC4)cc3)cc2)C[C@H](C)O1 | 0.39 µM
COC1CCC(COc2ccc(C#Cc3ccc(CN4CCOCC4)cc3)cc2)(C(=O)NO)CC1 (centres undefined) | 6.25 µM
O=C(NO)C1(COc2ccc(C#Cc3ccc(CN4CCOCC4)cc3)cc2)CCOCC1 | 1.56 µM

For each of the molecules below, note its MIC.
1. CC(C)(O)C#CC#Cc1ccc(OCC2(C(=O)NO)CCOCC2)cc1
2. C[C@@H](O)[C@H](NC(=O)c1ccc(C#Cc2ccc(CN3CCOCC3)cc2)cc1)C(=O)NO
3. O=C(NO)C1(COc2ccc(-c3ccccc3)cc2)CCOCC1
4. CN1CCN(Cc2ccc(C#Cc3ccc(OCC4(C(=O)NO)CCOCC4)cc3)cc2)CC1

6.25 µM
< 0.2 µM
> 200 µM
3.13 µM

For each of the molecules below, note its MIC.
1. O=C(CN1CCN(Cc2ccc(C#Cc3ccc(OCC4(C(=O)NO)CCOCC4)cc3)cc2)CC1)N1CCOCC1
2. O=C(NO)C1(COc2ccc(C#Cc3ccc(CN4CCN(CCn5ccnc5)CC4)cc3)cc2)CCOCC1

["25 µM", "0.78 µM"]
